system: M14; assay: NCI tumour cell line growth inhibition, 48 h
Active and inactive are the calls of the source. Rule as the data show it: active = GI50 up to about 1.1 µM and inactive = higher.
Measurement Kind: GI50

>  <Molecule>
Cc1nc(Nc2ccc(Cl)cc2)sc1C(=O)NNC(=S)NN

>  <Measurement Kind>
GI50

>  <Measurement>
19.7 µM (inactive)

$$$$
>  <Molecule>
CC1CC[C@@]2(OC1)OC1C[C@H]3[C@@H]4CC[C@H]5CC(OC6OC(CO)C(OC7OC(CO)C(O)C(O)C7OC7OC(CO)C(O)C(O)C7O)C(O)C6O)CCC5(C)[C@H]4CCC3(C)C1[C@@H]2C (some centres undefined)

>  <Measurement Kind>
GI50

>  <Measurement>
3.34 µM (inactive)

$$$$
>  <Molecule>
O=C1c2sc(-c3ccc(Cl)cc3)cc2-n2cccc21

>  <Measurement Kind>
GI50

>  <Measurement>
> 100 µM (inactive)

$$$$

Next:
[Q] GI50 for O=C(CCCN1CCC2(CC1)/C(=N/C1CCCCC1)NC(=O)N2c1ccccc1)c1ccc(F)cc1 ?
[A] 17.6 µM (inactive)

----------
Listed here are compounds together with their documented GI50.
tested on: MOLT-4; test: NCI tumour cell line growth inhibition, 48 h
Calls of active or inactive are those of the source. Cut-off read from the data, not from the text of the source: active = GI50 up to about 1.1 µM and inactive = higher.

[Q] Endpoint output: GI50 of COc1ccccc1-c1cc(O)c2c(C)cc(C)nc2n1 . Value?
[A] 30 µM (inactive)

----------
Quick reference: GI50 of the listed items.
system: NCI-H460; test: NCI tumour cell line growth inhibition, 48 h
Calls of active or inactive are those of the source. No stated cut-off is given here; in the data, active = GI50 up to about 1.1 µM and inactive = higher.

>  <Compound>
CC(=O)NC(CCCOC(C)=O)C(=O)NC(CCCOC(C)=O)C(=O)NC(CCCOC(C)=O)C(=O)NC(Cc1ccc([N+](=O)[O-])cc1)C(=O)NCC(=O)OCc1ccccc1 (centres undefined)

>  <GI50>
> 100 µM (inactive)

$$$$
>  <Compound>
COC(=O)C(Cc1nc2ccccc2nc1C)/C(=N\NC(N)=O)C(=O)Nc1cccc([N+](=O)[O-])c1 (centres undefined)

>  <GI50>
> 100 µM (inactive)

$$$$
>  <Compound>
CSc1c(C#N)c(N)nc2c(/N=N\c3ccc(Cl)cc3)c(N)nn12

>  <GI50>
11.1 µM (inactive)

$$$$

[Q] // fetch NCI-H460 GI50 for COC(=O)c1ccc(S)c(S(=O)(=O)Nc2nc(N)n[nH]2)c1
[A] > 100 µM (inactive)

[Q] Notebook entry, NCI-H460 assay: GI50 of COc1ccc2c(c1)[n+]([O-])c(C(=O)C/C(=N/NC(=O)C[N+](C)(C)C)C(=O)Nc1cccc(C)c1C)c(C)[n+]2[O-] = ?
[A] > 100 µM (inactive)

[Q] Recall the recorded GI50 for COc1ccc(-c2[nH]c3ccccc3c2CCNS(=O)(=O)c2ccc(C)cc2)cc1 with NCI-H460 and state it.
[A] 6.17 µM (inactive)

[Q] Quick check: GI50 on NCI-H460, item COCOCC[C@@H]1CC=CC(NC(=O)OCc2ccccc2)C1/C=C/C(=O)CCC1OCCO1 (some centres undefined) ?
[A] 38.6 µM (inactive)

[Q] Fill in the recorded GI50 for this compound, with NCI-H460 as test system: NCCSCc1ccccc1Cl
[A] 31.3 µM (inactive)

[Q] Kindly state the measured GI50 obtained for NCCCNC1(c2cc3ccccc3s2)CCCCC1 with NCI-H460.
[A] 1.94 µM (inactive)
